methodDescription: Accelerated test (40±2° C., relative humidity 75±5%, 6 months, sealed polyethylene film bag)
Format: physicochemical
studyConditions: 40±2° C., RH 75±5%, Month 0; hydrochloride
Counter-ions that a name gives are not always drawn.

{"columns": ["molecule", "Purity (%)"],
 "data": [
  ["Cc1nc(Nc2ccc(F)cc2)nc(N2CCc3ccccc3C2C)c1C (single isomer, unassigned) [revaprazan hydrochloride crystalline form II]", 99.94],
  ["Cc1nc(Nc2ccc(F)cc2)nc(N2CCc3ccccc3C2C)c1C (single isomer, unassigned) [revaprazan hydrochloride crystalline form IV]", 99.93],
  ["Cc1nc(Nc2ccc(F)cc2)nc(N2CCc3ccccc3C2C)c1C (single isomer, unassigned) [revaprazan hydrochloride crystalline form I]", 99.96],
  ["Cc1nc(Nc2ccc(F)cc2)nc(N2CCc3ccccc3C2C)c1C (single isomer, unassigned) [revaprazan hydrochloride crystalline form V]", 99.94],
  ["Cc1nc(Nc2ccc(F)cc2)nc(N2CCc3ccccc3C2C)c1C (single isomer, unassigned) [revaprazan hydrochloride crystalline form III]", 99.95]
]}

* * *

In this section we review reported Purity (%) values for a set of compounds.
methodDescription: High temperature test (60° C. incubator)
Type: physicochemical
studyConditions: 60° C., 5th day; hydrochloride
Structures can show the parent of a compound that is named as a salt.

{"columns": ["compound", "Purity (%)"],
 "data": [
  ["Cc1nc(Nc2ccc(F)cc2)nc(N2CCc3ccccc3C2C)c1C (single isomer, unassigned) [revaprazan hydrochloride crystalline form IV]", 99.91],
  ["Cc1nc(Nc2ccc(F)cc2)nc(N2CCc3ccccc3C2C)c1C (single isomer, unassigned) [revaprazan hydrochloride crystalline form V]", 99.95],
  ["Cc1nc(Nc2ccc(F)cc2)nc(N2CCc3ccccc3C2C)c1C (single isomer, unassigned) [revaprazan hydrochloride crystalline form I]", 99.95],
  ["Cc1nc(Nc2ccc(F)cc2)nc(N2CCc3ccccc3C2C)c1C (single isomer, unassigned) [revaprazan hydrochloride crystalline form II]", 99.97]
]}

* * *

In this section we review reported Loss on drying (%) values for a set of compounds.
methodDescription: High temperature test (60° C. incubator)
Assay type: physicochemical
studyConditions: 60° C., 10th day; hydrochloride
Structures can show the parent of a compound that is named as a salt.

{"columns": ["compound", "Loss on drying (%)"],
 "data": [
  ["Cc1nc(Nc2ccc(F)cc2)nc(N2CCc3ccccc3C2C)c1C (single isomer, unassigned) [revaprazan hydrochloride crystalline form I]", 0.24],
  ["Cc1nc(Nc2ccc(F)cc2)nc(N2CCc3ccccc3C2C)c1C (single isomer, unassigned) [revaprazan hydrochloride crystalline form IV]", 0.27],
  ["Cc1nc(Nc2ccc(F)cc2)nc(N2CCc3ccccc3C2C)c1C (single isomer, unassigned) [revaprazan hydrochloride crystalline form V]", 0.32],
  ["Cc1nc(Nc2ccc(F)cc2)nc(N2CCc3ccccc3C2C)c1C (single isomer, unassigned) [revaprazan hydrochloride crystalline form II]", 0.29]
]}

* * *

In this section we review reported Loss on drying (%) values for a set of molecules.
methodDescription: High temperature test (60° C. incubator)
Format: physicochemical
studyConditions: 60° C., 5th day; hydrochloride
Procedure: Revaprazan hydrochloride crystalline form I is placed in a 60° C. incubator, and is sampled on the 5th day and 10th day for detection, and the results are shown in Table 2. Revaprazan hydrochloride crystalline form II is placed in a 60° C. incubator, and is sampled on the 5th day and 10th day for detection, and the results are shown in Table 6. Revaprazan hydrochloride polymorph III is placed in an incubator of 60° C., and is sampled on the 5th day and the 10th day for detection. […]
Where a name gives a salt, the structure may show the parent alone.

{"columns": ["molecule", "Loss on drying (%)"],
 "data": [
  ["Cc1nc(Nc2ccc(F)cc2)nc(N2CCc3ccccc3C2C)c1C (single isomer, unassigned) [revaprazan hydrochloride crystalline form I]", 0.23],
  ["Cc1nc(Nc2ccc(F)cc2)nc(N2CCc3ccccc3C2C)c1C (single isomer, unassigned) [revaprazan hydrochloride crystalline form V]", 0.30],
  ["Cc1nc(Nc2ccc(F)cc2)nc(N2CCc3ccccc3C2C)c1C (single isomer, unassigned) [revaprazan hydrochloride crystalline form II]", 0.27],
  ["Cc1nc(Nc2ccc(F)cc2)nc(N2CCc3ccccc3C2C)c1C (single isomer, unassigned) [revaprazan hydrochloride crystalline form IV]", 0.27]
]}

* * *

methodDescription: High temperature test (60° C. incubator)
Type: physicochemical
studyConditions: 60° C., 10th day; hydrochloride
Counter-ions that a name gives are not always drawn.
measuredAttribute: Relevant substances

{"columns": ["compound", "measuredAttribute", "result"],
 "data": [
  ["Cc1nc(Nc2ccc(F)cc2)nc(N2CCc3ccccc3C2C)c1C (single isomer, unassigned) [revaprazan hydrochloride crystalline form I]", "Relevant substances", "Not detected"],
  ["Cc1nc(Nc2ccc(F)cc2)nc(N2CCc3ccccc3C2C)c1C (single isomer, unassigned) [revaprazan hydrochloride crystalline form IV]", "Relevant substances", "Undetected"],
  ["Cc1nc(Nc2ccc(F)cc2)nc(N2CCc3ccccc3C2C)c1C (single isomer, unassigned) [revaprazan hydrochloride crystalline form II]", "Relevant substances", "Not detected"],
  ["Cc1nc(Nc2ccc(F)cc2)nc(N2CCc3ccccc3C2C)c1C (single isomer, unassigned) [revaprazan hydrochloride crystalline form V]", "Relevant substances", "Undetected"]
]}

* * *

In this section we review reported Loss on drying (%) values for a set of compounds.
methodDescription: Light illumination test (intense light, 4500±500 Lx)
Type: physicochemical
studyConditions: light 4500±500 Lx, 5th day; hydrochloride
From the text: Revaprazan hydrochloride crystalline form I is irradiated under such a condition that the light intensity is 4500±500 Lx, and is sampled on the 5th day and 10th day for detection, and the results are shown in Table 1. Revaprazan hydrochloride crystalline form II is irradiated under the condition that the light intensity is 4500±500Lx, and is sampled on the 5th day and 10th day for detection. […]
Structures can show the parent of a compound that is named as a salt.
measuredAttribute: Loss on drying (%)

{"columns": ["compound", "number"],
 "data": [
  ["Cc1nc(Nc2ccc(F)cc2)nc(N2CCc3ccccc3C2C)c1C (single isomer, unassigned) [revaprazan hydrochloride crystalline form IV]", 0.29],
  ["Cc1nc(Nc2ccc(F)cc2)nc(N2CCc3ccccc3C2C)c1C (single isomer, unassigned) [revaprazan hydrochloride crystalline form V]", 0.27],
  ["Cc1nc(Nc2ccc(F)cc2)nc(N2CCc3ccccc3C2C)c1C (single isomer, unassigned) [revaprazan hydrochloride crystalline form II]", 0.26],
  ["Cc1nc(Nc2ccc(F)cc2)nc(N2CCc3ccccc3C2C)c1C (single isomer, unassigned) [revaprazan hydrochloride crystalline form I]", 0.28]
]}

* * *

methodDescription: High temperature test (60° C. incubator)
Assay type: physicochemical
studyConditions: 60° C., Day 0; hydrochloride
Procedure: Revaprazan hydrochloride crystalline form I is placed in a 60° C. incubator, and is sampled on the 5th day and 10th day for detection, and the results are shown in Table 2. Revaprazan hydrochloride crystalline form II is placed in a 60° C. incubator, and is sampled on the 5th day and 10th day for detection, and the results are shown in Table 6. Revaprazan hydrochloride polymorph III is placed in an incubator of 60° C., and is sampled on the 5th day and the 10th day for detection. […]
Where a name gives a salt, the structure may show the parent alone.
measuredAttribute: Appearance color

{"columns": ["compound", "result"],
 "data": [
  ["Cc1nc(Nc2ccc(F)cc2)nc(N2CCc3ccccc3C2C)c1C (single isomer, unassigned) [revaprazan hydrochloride crystalline form V]", "White powder"],
  ["Cc1nc(Nc2ccc(F)cc2)nc(N2CCc3ccccc3C2C)c1C (single isomer, unassigned) [revaprazan hydrochloride crystalline form I]", "White powder"],
  ["Cc1nc(Nc2ccc(F)cc2)nc(N2CCc3ccccc3C2C)c1C (single isomer, unassigned) [revaprazan hydrochloride crystalline form IV]", "White powder"],
  ["Cc1nc(Nc2ccc(F)cc2)nc(N2CCc3ccccc3C2C)c1C (single isomer, unassigned) [revaprazan hydrochloride crystalline form II]", "White"]
]}

* * *

methodDescription: High humidity test (25° C., relative humidity 75±5%)
Format: physicochemical
studyConditions: 25° C., RH 75±5%, 5th day; hydrochloride
Counter-ions that a name gives are not always drawn.
measuredAttribute: Weight gain upon moisture absorption (%)

{"columns": ["compound", "measuredAttribute", "result"],
 "data": [
  ["Cc1nc(Nc2ccc(F)cc2)nc(N2CCc3ccccc3C2C)c1C (single isomer, unassigned) [revaprazan hydrochloride crystalline form II]", "Weight gain upon moisture absorption (%)", "0.42%"],
  ["Cc1nc(Nc2ccc(F)cc2)nc(N2CCc3ccccc3C2C)c1C (single isomer, unassigned) [revaprazan hydrochloride crystalline form V]", "Weight gain upon moisture absorption (%)", "0.42%"],
  ["Cc1nc(Nc2ccc(F)cc2)nc(N2CCc3ccccc3C2C)c1C (single isomer, unassigned) [revaprazan hydrochloride crystalline form IV]", "Weight gain upon moisture absorption (%)", "0.44%"],
  ["Cc1nc(Nc2ccc(F)cc2)nc(N2CCc3ccccc3C2C)c1C (single isomer, unassigned) [revaprazan hydrochloride crystalline form III]", "Weight gain upon moisture absorption (%)", "0.47%"],
  ["Cc1nc(Nc2ccc(F)cc2)nc(N2CCc3ccccc3C2C)c1C (single isomer, unassigned) [revaprazan hydrochloride crystalline form I]", "Weight gain upon moisture absorption (%)", "0.42%"]
]}
